This section presents compounds with their documented melting point values.

Example results:
CCn1c(-c2ccc(-n3ccnc3)cc2)cnc1[C@H](Cc1ccccn1)N(C=O)c1cc2cc(OC)ccc2o1.Cl.Cl.Cl; 190 to 195 °C
CCn1c(-c2ccc(-n3ccnc3)cc2)cnc1[C@H](Cc1ccccn1)N(C=O)c1cc2cc(F)ccc2o1; 80 to 84 °C
Cn1c(-c2ccc(-c3ccccc3)cc2)cnc1[C@H](Cc1ccccn1)N(C=O)c1cc2cc(Cl)ccc2o1; 171 to 174 °C
Cn1c(-c2ccc(-n3ccnc3)cc2)cnc1[C@H](Cc1ccccn1)N(C=O)c1cc2cc(Br)ccc2o1; 197 to 199 °C
Cn1c(-c2ccc(N3CCOCC3)cc2)cnc1[C@H](Cc1ccccn1)N(C=O)c1nc2cc(Cl)ccc2s1; 96 to 99 °C
Cn1c(-c2ccc(-n3ccnc3)cc2)cnc1[C@H](Cc1ccccn1)N(C=O)c1cc2cc(C#N)ccc2o1; 174 to 176 °C

Consider now this further compound.
Entry `Cn1c(-c2ccc([N+](=O)[O-])cc2)cnc1[C@H](Cc1ccccn1)N(C=O)c1cc2ccccc2o1` ; melting point = 103 to 104 °C

* * *

Reported melting point values for the following molecules.

Consider the following illustrative entries.
Cn1c(-c2ccc(-n3ccnc3)cc2)cnc1[C@H](Cc1ccccn1)N(C=O)c1cc2cc([N+](=O)[O-])ccc2s1; 228 to 231 °C
Cn1c(-c2ccc(-n3ccnc3)cc2)cnc1[C@H](Cc1ccccn1)N(C=O)c1cc2cc(C=O)ccc2o1; 194 to 197 °C
Cn1c(-c2ccc(-n3ccnc3)cc2)cnc1[C@H](Cc1ccccn1)N(C=O)c1cc2ccccc2s1; 190 to 193 °C

With those in mind, consider the next molecule.
Sample `COc1ccc2oc(N(C=O)[C@@H](Cc3ccccn3)c3ncc(-c4ccc(-c5ccccc5)cc4)n3C)cc2c1` ; melting point observed: 150 to 152 °C

* * *

List of melting point values.

A selection of reference data follows.
Cn1c(-c2ccc(-c3cccnc3)cc2)cnc1[C@H](Cc1ccccn1)N(C=O)c1cc2cc(Cl)ccc2o1; 158 to 160 °C
Cc1nccn1-c1ccc(-c2cnc([C@H](Cc3ccccn3)N(C=O)c3cc4cc(Cl)ccc4o3)n2C)cc1; 159 to 161 °C
Cn1c(-c2ccc(-n3ccnc3)cc2)cnc1[C@H](Cc1ccccn1)N(C=O)c1cc2cc([N+](=O)[O-])ccc2o1; 221 to 223 °C
COc1ccc2oc(N(C=O)[C@@H](Cc3ccccn3)c3ncc(-c4ccc(-n5ccnc5)cc4)n3C)cc2c1; 151 to 153 °C
CCCn1c(-c2ccc(-n3ccnc3)cc2)cnc1[C@H](Cc1ccccn1)N(C=O)c1cc2cc(Cl)ccc2o1; 173 to 175 °C
Cn1c(-c2ccc(-c3ccccn3)cc2)cnc1[C@H](Cc1ccccn1)N(C=O)c1cc2cc(Cl)ccc2o1; 175 to 180 °C

# context switch: different compound, same melting point
In plain terms, `Cn1c(-c2ccc(-n3ccnc3)cc2)cnc1[C@H](Cc1ccccn1)N(C=O)c1cc2ccc(Cl)cc2o1` has a documented melting point of 165 to 169 °C

* * *

Here, each record is paired with measured melting point data.

Here are 5 compounds together with their reported answers.
CCCn1c(-c2ccc(-n3ccnc3)cc2)cnc1[C@H](Cc1ccccn1)N(C=O)c1cc2cc(F)ccc2o1 [Example 56]; 77 to 81 °C
Cn1c(-c2ccc(-n3ccnc3)cc2)cnc1[C@H](Cc1ccccn1)N(C=O)c1cc2cccnc2o1 [Example 27]; 108 to 110 °C
Cc1nccn1-c1ccc(-c2cnc([C@H](Cc3ccccn3)N(C=O)c3cc4ccccc4o3)n2C)cc1 [Example 15]; 167 to 171 °C
Cc1nccn1-c1ccc(-c2cnc([C@H](Cc3ccccn3)N(C=O)c3cc4ccccc4[nH]3)n2C)cc1 [Example 14]; 207 to 211 °C
Cn1c(-c2ccc(-c3cccnc3)cc2)cnc1[C@H](Cc1ccccn1)N(C=O)c1cc2cc(Br)ccc2o1 [Example 35]; 168 to 171 °C

// melting point value for `CCn1c(-c2ccc(-n3ccnc3)cc2)cnc1[C@H](Cc1ccccn1)N(C=O)c1cc2cc([N+](=O)[O-])ccc2o1.Cl.Cl.Cl` : 190 to 200 °C

Summary for this compound, Cc1ccc2oc(N(C=O)[C@@H](Cc3ccccn3)c3ncc(-c4ccc(N5CCOCC5)cc4)n3C)cc2c1 [Example 5] : melting point is 125 to 127 °C
